target: HLA-A*3101 (human); test: inhibition of 125I-A3con binding to purified HLA; details: remark: other sources report otherwise
parameterMeasured: IC50
Field note: include the unit after the figure.

# binder, parameterMeasured, assayResult
measured = [
    ("RTLTLLSVTR [CEA.376]", "IC50", "6 nM"),
    ("RTLTLFNVTR [CEA.554]", "IC50", "5 nM"),
]

Kindly consider the entry below.
I would be grateful if you could share the reported IC50 for RVLTLFNVTR [CEA.554.V2] .
9 nM
